Target: 2-acylglycerol O-acyltransferase 2 (Homo sapiens)
Sequence (Q3SYC2 whole entry): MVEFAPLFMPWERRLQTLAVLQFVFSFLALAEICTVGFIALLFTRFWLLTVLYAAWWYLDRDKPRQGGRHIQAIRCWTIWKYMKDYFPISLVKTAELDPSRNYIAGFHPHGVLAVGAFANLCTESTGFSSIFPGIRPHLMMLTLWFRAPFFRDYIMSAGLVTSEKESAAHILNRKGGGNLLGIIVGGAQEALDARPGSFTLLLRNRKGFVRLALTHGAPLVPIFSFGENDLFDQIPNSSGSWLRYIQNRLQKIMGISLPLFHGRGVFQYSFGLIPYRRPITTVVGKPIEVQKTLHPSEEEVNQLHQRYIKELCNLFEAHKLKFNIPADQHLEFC
Assay: Inhibition of human MGAT2 by SPA assay
IC50 values by entry
// units = nM; emit number, no label

# structure, IC50 [nM]
data = [
    ("Cc1ccc(C2=C(C(=O)Nc3ccno3)C(=O)N[C@@](c3ccc(OCCCC(F)(F)F)cc3)(C(F)(F)F)C2)cc1", 8),
]

Ask | Entry under review: Cc1ccc(C2=C(C(=O)Nc3ccc(-c4nnn[nH]4)cc3)C(=O)N[C@@](c3ccc(OCCCC(F)(F)F)cc3)(C(F)(F)F)C2)cc1 . Reported IC50?
Reply | 9
